Assay: A CellTox Green Cytotoxicity Assay to monitor cytotoxicity in HepG2 cells - 16 hour (AID 1224876); note: nearly all actives have a fitted effect of over 45% in size
Conditions: CellTox Green fluorescence; series mostly up to 76.8 µM
Results filed as inconclusive are left out. Active and inactive are the calls of the source. Calls come from the whole dose curve; as a rule, active = well fitted activation curve with a large enough effect in the repeat runs; inconclusive = weak or mixed curves; inactive = flat fitted curve, though single readings scatter.
Select the matching outcome among active, inactive

CCC(C)(C)OC : inactive
O=C1c2ccccc2C(=O)C1(O)O : inactive
Cc1ccccc1S : inactive
CCOC(=O)[C@H](CCc1ccccc1)N[C@@H](C)C(=O)N(CC(=O)O)C1Cc2ccccc2C1 : inactive
CN(C(=O)CN(CCO)CC(=O)N(C)C(C)(C)Cc1ccccc1)C(C)(C)Cc1ccccc1 : active
O=C(O)CCc1nc(-c2ccccc2)c(-c2ccccc2)o1 : inactive
c1ccc(C[n+]2cccc3ccccc32)cc1 : inactive
NC(=O)c1ccncc1 : inactive
O=C(/C=C/c1ccccc1)OCCc1ccccc1 : inactive
CCOc1ccc(Cc2nccc3cc(OCC)c(OCC)cc23)cc1OCC : inactive

Now consider the entry below.
## Input // param item: C[C@@H]1CN(CCCn2c3ccccc3c3ccccc32)C[C@H](C)N1 ; yields the recorded call
## Output active
